- System Name: T1, human guanylyl cyclase C (GCC) (human, UniProt P25092 24-1073)
- T1 construct: also called hGCC; STAR
- T1 sequence (P25092 24-1073 limits assumed): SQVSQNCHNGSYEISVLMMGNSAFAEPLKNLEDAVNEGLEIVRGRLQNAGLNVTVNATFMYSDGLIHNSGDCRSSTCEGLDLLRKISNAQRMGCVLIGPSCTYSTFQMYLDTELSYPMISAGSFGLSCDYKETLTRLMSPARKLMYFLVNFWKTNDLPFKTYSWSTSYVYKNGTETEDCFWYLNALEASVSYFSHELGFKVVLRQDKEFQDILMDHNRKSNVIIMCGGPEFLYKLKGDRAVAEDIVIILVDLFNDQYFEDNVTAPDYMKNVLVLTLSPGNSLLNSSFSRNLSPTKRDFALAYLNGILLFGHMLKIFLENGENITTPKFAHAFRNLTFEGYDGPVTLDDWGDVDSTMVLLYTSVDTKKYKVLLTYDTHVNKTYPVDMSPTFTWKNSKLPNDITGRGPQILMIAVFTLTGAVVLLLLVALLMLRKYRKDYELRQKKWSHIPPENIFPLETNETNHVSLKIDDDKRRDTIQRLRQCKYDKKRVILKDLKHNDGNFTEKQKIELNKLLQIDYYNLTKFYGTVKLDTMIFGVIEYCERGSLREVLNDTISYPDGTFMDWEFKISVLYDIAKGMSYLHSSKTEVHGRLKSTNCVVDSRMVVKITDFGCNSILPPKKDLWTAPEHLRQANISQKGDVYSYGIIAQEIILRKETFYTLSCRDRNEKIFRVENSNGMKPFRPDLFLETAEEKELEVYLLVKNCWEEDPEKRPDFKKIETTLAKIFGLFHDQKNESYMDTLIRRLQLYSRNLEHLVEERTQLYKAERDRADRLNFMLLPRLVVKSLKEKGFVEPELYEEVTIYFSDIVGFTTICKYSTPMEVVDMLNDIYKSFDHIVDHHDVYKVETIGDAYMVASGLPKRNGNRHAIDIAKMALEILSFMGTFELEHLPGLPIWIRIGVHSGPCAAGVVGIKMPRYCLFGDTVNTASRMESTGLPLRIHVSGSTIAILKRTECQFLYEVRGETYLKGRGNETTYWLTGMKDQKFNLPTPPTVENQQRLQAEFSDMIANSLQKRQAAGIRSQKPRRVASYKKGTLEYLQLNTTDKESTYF
- Test Method Notes: flow cytometry, 293 GCC #2 cells, 1 µg/ml
Value Kind: MFI
The answer should be a number; do not append a unit.

Which MFI value is on record for 5F9 vcMMAE immunoconjugate (antibody, V domains shown, mc-vc-MMAE linked to cysteines freed by partial reduction of interchain disulfides (outside this variable domain); average drug loading about 4 (3.6 in the described preparation), also called MLN0264; ML0264) VH: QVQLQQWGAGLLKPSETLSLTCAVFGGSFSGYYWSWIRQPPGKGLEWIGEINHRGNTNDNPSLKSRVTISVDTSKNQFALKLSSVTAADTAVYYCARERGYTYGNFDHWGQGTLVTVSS VL: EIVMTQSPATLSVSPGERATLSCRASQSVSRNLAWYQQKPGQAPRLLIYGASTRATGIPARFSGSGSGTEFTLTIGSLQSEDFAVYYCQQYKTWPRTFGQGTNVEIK ?
7420
